Reference for the values: patent US11566002B2

Test system: HBV rcDNA
assay.explanation: HepDE19 assay with bDNA quantitation of HBV rcDNA
Type: cell-based, hepatitis B virus
experimental.parameters: Hepatitis B virus, HepDE19, 168 h, HepDE19 cells, Tet-free medium, 7 day-incubation, rcDNA measured by Quantigene 2.0 bDNA assay, top concentration 25 μM; read-out: DE-19 bDNA EC50
pEC50: −log10 of the molar value.
# if value of pEC50 reaches 6, tag met; if it stays below, tag not met

Cc1cc(NC(=O)c2c3c(cn2C)C(NC(=O)OCc2ncn(C)n2)CC3)ccc1F (single isomer, unassigned) : met

Assess whether reported pEC50 for Cn1cnc(COC(=O)NC2CCc3c2cn(C)c3C(=O)Nc2ccc(F)c(C(F)F)c2)n1 (single isomer, unassigned) sits at 6 or higher.
met
